The origin of these recorded values is ChEMBL document CHEMBL1142854.

- Experiment description: Bioavailability in mouse
- Type: ADME, organism-based
- Condition label: in vivo
Result type: bioavailability (%)
Numeric answer only, unit % assumed.

Form: compound = CC(C)(C)C1CCC2(CC1)CN(c1cc(Cl)cc(Cl)c1)C(=O)N2Cc1ccc(C(=O)NCCC(=O)O)cc1 (stereo not drawn) ; bioavailability = 27

Form: compound = CC(C)(C)C1CCC2(CC1)CN(c1ccc(OC(F)(F)F)cc1)C(=O)N2Cc1ccc(C(=O)Nc2nnn[nH]2)cc1 (stereo not drawn) ; bioavailability = 27

Form: compound = CC(C)(C)C1CCC2(CC1)CCN(c1ccc(OC(F)(F)F)cc1)C(=O)N2Cc1ccc(C(=O)Nc2nnn[nH]2)cc1 (stereo not drawn) ; bioavailability = 20
